biological target: recombinant human DAO (diamine oxidase) (Homo sapiens); construct: purchased R&D systems; assay: Activity on recombinant human DAO, Amplex Red method, 1 mM putrescine substrate; format: biochemical; details: recombinant human DAO, 1 mM putrescine; * = between 10 and 100 nM, ** = between 300 and 1000 nM; read-out: Inhibitory Activity (IC50, nM) DAO
Counter-ions that a name gives are not always drawn.
Metric: IC50

// IC50 lookup, molecule = CC(=O)N1CCN(c2ccc(-c3cccc(-n4cnn(C/C(=C/F)CN)c4=O)c3)cc2)CC1 [Example 72, hydrochloride] , result: 59 nM

// IC50 lookup, molecule = `NC/C(=C\F)Cn1ncn(-c2cnc(Br)cn2)c1=O` , result: < 100 nM

// IC50 lookup, molecule = CC(=O)Nc1cc(-c2cccc(-n3cnn(C/C(=C/F)CN)c3=O)c2)ccn1 [Example 81, hydrochloride] , result: < 100 nM

// IC50 lookup, molecule = NC/C(=C\F)Cn1ncn(-c2cccc(-c3ccc4sc(N)nc4c3)c2)c1=O [Example 99, hydrochloride] , result: < 100 nM

// IC50 lookup, molecule = NC/C(=C\F)Cn1ncn(-c2cccc(-c3ccc(C(F)(F)F)nc3)c2)c1=O [Example 84, hydrochloride] , result: < 10 nM

// IC50 lookup, molecule = CC(=O)c1ccc(-c2cccc(-n3cnn(C/C(=C/F)CN)c3=O)c2)s1 [Example 49, hydrochloride] , result: 2.1 nM

// IC50 lookup, molecule = NC/C(=C\F)Cn1ncn(-c2ccc(Br)c(F)c2)c1=O [Example 14, hydrochloride] , result: 38 nM

// IC50 lookup, molecule = Cc1cc(-n2cnn(C/C(=C/F)CN)c2=O)ncc1Br [Example 34, hydrochloride] , result: 13 nM

// IC50 lookup, molecule = `NC/C(=C\F)Cn1ncn(-c2cccc(-c3ccc(-c4nnc[nH]4)cc3)c2)c1=O` , result: < 100 nM

// IC50 lookup, molecule = `Cc1cc(-n2cnn(C/C(=C/F)CN)c2=O)cnc1-c1ccc(-c2nc[nH]n2)cc1` , result: < 100 nM

// IC50 lookup, molecule = NC/C(=C\F)Cn1ncn(-c2cccc(-c3cccnc3)c2)c1=O [Example 82, hydrochloride] , result: < 100 nM

====

target: recombinant human DAO (diamine oxidase) (Homo sapiens, UniProt P19801); construct: purchased R&D systems; assay: Activity on recombinant human DAO, Amplex Red method, 1 mM putrescine substrate; format: biochemical; settings: recombinant human DAO, 1 mM putrescine; * = between 10 and 100 nM, ** = between 300 and 1000 nM; read-out: Inhibitory Activity (IC50, nM) DAO
Where a name gives a salt, the structure may show the parent alone.
Under this convention, Fulfilled denotes IC50 strictly below 10 nM and Not fulfilled denotes IC50 at or above 10 nM.

IN: is_below(IC50, 10 nM) for NC/C(=C\F)Cn1ncn(-c2cccc(-c3c[nH]c4ccccc34)c2)c1=O [Example 100, hydrochloride] ?
OUT: Not fulfilled

IN: is_below(IC50, 10 nM) for CC(=O)c1ccc(-c2ccc(-n3cnn(C/C(=C\F)CN)c3=O)cc2)s1 [Example 42, hydrochloride] ?
OUT: Fulfilled

IN: is_below(IC50, 10 nM) for CC(=O)Nc1ccc(-c2ccc(-c3cccc(-n4cnn(C/C(=C/F)CN)c4=O)c3)cc2)cc1 [Example 68, hydrochloride] ?
OUT: Fulfilled

IN: is_below(IC50, 10 nM) for `Cc1cc(-c2cccc(-c3nnc[nH]3)c2)cnc1-n1cnn(C/C(=C/F)CN)c1=O` ?
OUT: Not fulfilled

IN: is_below(IC50, 10 nM) for Cc1cc(-c2ccc3c(c2)OCO3)cnc1-n1cnn(C/C(=C/F)CN)c1=O [Example 150, hydrochloride] ?
OUT: Not fulfilled

IN: is_below(IC50, 10 nM) for CC(C)n1cc(-c2cccc(-n3cnn(C/C(=C/F)CN)c3=O)c2)ccc1=O [Example 90, hydrochloride] ?
OUT: Not fulfilled

IN: is_below(IC50, 10 nM) for NC/C(=C\F)Cn1ncn(-c2c(F)cc(Br)cc2F)c1=O [Example 22, hydrochloride] ?
OUT: Not fulfilled

IN: is_below(IC50, 10 nM) for CS(=O)(=O)c1ccc(-c2ccc(-c3cccc(-n4cnn(C/C(=C/F)CN)c4=O)c3)cc2)cc1 [Example 66, hydrochloride] ?
OUT: Fulfilled

IN: is_below(IC50, 10 nM) for NC/C(=C\F)Cn1ncn(-c2cccc(-c3cccc4[nH]ccc34)c2)c1=O [Example 98, hydrochloride] ?
OUT: Not fulfilled

IN: is_below(IC50, 10 nM) for `Cc1cc(-c2ccc(-c3nnc[nH]3)cc2)cnc1-n1cnn(C/C(=C\F)CN)c1=O` ?
OUT: Not fulfilled

IN: is_below(IC50, 10 nM) for Cc1cc(-n2cnn(C/C(=C/F)CN)c2=O)ccc1Br [Example 16, hydrochloride] ?
OUT: Not fulfilled

IN: is_below(IC50, 10 nM) for CC(=O)Nc1ccc(-c2cccc(-c3cccc(-n4cnn(C/C(=C/F)CN)c4=O)c3)c2)cc1 [Example 69, hydrochloride] ?
OUT: Not fulfilled

IN: is_below(IC50, 10 nM) for `Cc1cc(-c2cccc(-c3nnn[nH]3)c2)cnc1-n1cnn(C/C(=C/F)CN)c1=O` ?
OUT: Not fulfilled

====

Target: recombinant human DAO (diamine oxidase) (Homo sapiens, UniProt P19801)
Construct: purchased R&D systems
Sequence (P19801 20-751): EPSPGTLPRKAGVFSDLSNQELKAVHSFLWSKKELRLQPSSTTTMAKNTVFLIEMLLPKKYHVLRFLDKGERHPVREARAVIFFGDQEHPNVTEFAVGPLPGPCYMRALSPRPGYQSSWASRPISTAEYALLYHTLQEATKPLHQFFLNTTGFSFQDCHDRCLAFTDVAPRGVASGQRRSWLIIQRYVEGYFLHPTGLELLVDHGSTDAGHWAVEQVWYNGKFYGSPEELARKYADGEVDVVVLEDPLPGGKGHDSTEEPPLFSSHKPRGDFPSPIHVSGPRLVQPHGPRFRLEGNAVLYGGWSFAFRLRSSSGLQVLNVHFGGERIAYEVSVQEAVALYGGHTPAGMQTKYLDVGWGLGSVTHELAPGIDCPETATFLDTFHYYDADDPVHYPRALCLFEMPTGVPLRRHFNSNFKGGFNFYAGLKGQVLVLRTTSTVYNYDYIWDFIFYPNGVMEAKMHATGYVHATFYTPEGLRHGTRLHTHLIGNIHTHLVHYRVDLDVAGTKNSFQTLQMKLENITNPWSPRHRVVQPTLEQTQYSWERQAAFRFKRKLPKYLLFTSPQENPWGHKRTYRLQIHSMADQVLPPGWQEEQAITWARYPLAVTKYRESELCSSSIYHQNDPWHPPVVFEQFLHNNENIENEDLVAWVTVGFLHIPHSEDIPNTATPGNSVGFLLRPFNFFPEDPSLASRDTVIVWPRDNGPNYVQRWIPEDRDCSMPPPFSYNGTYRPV
Assay: Activity on recombinant human DAO, Amplex Red method, 1 mM putrescine substrate
Type: biochemical
Details: recombinant human DAO, 1 mM putrescine; * = between 10 and 100 nM, ** = between 300 and 1000 nM; read-out: Inhibitory Activity (IC50, nM) DAO
Structures can show the parent of a compound that is named as a salt.
Metric: IC50

// IC50 lookup, compound = NC/C(=C\F)Cn1ncn(-c2cccc(-c3cccc(-c4ncon4)c3)c2)c1=O [Example 62] , result: < 100 nM

// IC50 lookup, compound = Cc1cc(-c2ccc(N3CCOCC3)nc2)ncc1-n1cnn(C/C(=C/F)CN)c1=O [Example 124] , result: < 100 nM

// IC50 lookup, compound = CC(=O)Nc1cc(-c2cc(C)c(-n3cnn(C/C(=C/F)CN)c3=O)cn2)ccn1 [Example 123] , result: < 100 nM

// IC50 lookup, compound = CS(=O)(=O)c1ccc(-c2cccc(-n3cnn(C/C(=C\F)CN)c3=O)c2)cc1 [Example 53, hydrochloride] , result: < 30 nM

// IC50 lookup, compound = NC/C(=C\F)Cn1ncn(-c2cccc(-c3ccc(-c4ccc5c(c4)OCO5)cc3)c2)c1=O [Example 70, hydrochloride] , result: < 30 nM

// IC50 lookup, compound = NC/C(=C\F)Cn1ncn(-c2cccc(-c3ccc4c(c3)OCO4)c2)c1=O [Example 93, hydrochloride] , result: < 100 nM

// IC50 lookup, compound = Cc1cc(-c2ccc3sc(N)nc3c2)ncc1-n1cnn(C/C(=C/F)CN)c1=O [Example 127] , result: < 100 nM

====

target: recombinant human MAO-B (monoamine oxidase-B) (Homo sapiens); construct: purchased Sigma-Aldrich; test: Activity on recombinant human MAO-B, Amplex Red method, 1 mM benzylamine substrate; assay type: biochemical; conditions: 1 mM benzylamine substrate, read-out: Inhibitory Activity (IC50, nM) MAO-B
Sequence (P27338 whole entry): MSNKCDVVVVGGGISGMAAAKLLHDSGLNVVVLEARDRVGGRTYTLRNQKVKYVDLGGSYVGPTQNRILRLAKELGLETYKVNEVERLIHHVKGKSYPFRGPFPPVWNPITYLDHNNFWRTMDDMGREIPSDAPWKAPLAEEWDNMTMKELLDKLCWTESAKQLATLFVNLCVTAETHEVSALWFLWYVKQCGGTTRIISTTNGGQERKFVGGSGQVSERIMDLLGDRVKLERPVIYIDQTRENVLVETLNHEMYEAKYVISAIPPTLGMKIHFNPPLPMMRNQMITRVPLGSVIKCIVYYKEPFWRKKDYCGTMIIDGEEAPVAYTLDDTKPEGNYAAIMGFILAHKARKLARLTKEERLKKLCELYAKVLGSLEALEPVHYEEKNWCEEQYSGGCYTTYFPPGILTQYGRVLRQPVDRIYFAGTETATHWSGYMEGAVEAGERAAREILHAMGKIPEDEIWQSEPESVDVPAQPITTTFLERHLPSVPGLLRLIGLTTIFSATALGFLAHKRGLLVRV
Where a name gives a salt, the structure may show the parent alone.
Metric: IC50

// IC50 lookup, compound = NC/C(=C/F)Cn1ncn(-c2ncc(-c3ccc4c(c3)OCO4)s2)c1=O [Example 232, hydrochloride] , result: < 100 nM

// IC50 lookup, compound = NC/C(=C\F)Cn1ncn(-c2cccc(/C=C/c3ccsc3)n2)c1=O [Example 237] , result: < 100 nM

// IC50 lookup, compound = Cc1cc(-c2ccc(N3CCNCC3)nc2)cnc1-n1cnn(C/C(=C/F)CN)c1=O [Example 259] , result: > 100000 nM
